- assay_target: Fatty acid synthase (Homo sapiens)
- Sequence (P49327 whole entry, the tested form may be a part): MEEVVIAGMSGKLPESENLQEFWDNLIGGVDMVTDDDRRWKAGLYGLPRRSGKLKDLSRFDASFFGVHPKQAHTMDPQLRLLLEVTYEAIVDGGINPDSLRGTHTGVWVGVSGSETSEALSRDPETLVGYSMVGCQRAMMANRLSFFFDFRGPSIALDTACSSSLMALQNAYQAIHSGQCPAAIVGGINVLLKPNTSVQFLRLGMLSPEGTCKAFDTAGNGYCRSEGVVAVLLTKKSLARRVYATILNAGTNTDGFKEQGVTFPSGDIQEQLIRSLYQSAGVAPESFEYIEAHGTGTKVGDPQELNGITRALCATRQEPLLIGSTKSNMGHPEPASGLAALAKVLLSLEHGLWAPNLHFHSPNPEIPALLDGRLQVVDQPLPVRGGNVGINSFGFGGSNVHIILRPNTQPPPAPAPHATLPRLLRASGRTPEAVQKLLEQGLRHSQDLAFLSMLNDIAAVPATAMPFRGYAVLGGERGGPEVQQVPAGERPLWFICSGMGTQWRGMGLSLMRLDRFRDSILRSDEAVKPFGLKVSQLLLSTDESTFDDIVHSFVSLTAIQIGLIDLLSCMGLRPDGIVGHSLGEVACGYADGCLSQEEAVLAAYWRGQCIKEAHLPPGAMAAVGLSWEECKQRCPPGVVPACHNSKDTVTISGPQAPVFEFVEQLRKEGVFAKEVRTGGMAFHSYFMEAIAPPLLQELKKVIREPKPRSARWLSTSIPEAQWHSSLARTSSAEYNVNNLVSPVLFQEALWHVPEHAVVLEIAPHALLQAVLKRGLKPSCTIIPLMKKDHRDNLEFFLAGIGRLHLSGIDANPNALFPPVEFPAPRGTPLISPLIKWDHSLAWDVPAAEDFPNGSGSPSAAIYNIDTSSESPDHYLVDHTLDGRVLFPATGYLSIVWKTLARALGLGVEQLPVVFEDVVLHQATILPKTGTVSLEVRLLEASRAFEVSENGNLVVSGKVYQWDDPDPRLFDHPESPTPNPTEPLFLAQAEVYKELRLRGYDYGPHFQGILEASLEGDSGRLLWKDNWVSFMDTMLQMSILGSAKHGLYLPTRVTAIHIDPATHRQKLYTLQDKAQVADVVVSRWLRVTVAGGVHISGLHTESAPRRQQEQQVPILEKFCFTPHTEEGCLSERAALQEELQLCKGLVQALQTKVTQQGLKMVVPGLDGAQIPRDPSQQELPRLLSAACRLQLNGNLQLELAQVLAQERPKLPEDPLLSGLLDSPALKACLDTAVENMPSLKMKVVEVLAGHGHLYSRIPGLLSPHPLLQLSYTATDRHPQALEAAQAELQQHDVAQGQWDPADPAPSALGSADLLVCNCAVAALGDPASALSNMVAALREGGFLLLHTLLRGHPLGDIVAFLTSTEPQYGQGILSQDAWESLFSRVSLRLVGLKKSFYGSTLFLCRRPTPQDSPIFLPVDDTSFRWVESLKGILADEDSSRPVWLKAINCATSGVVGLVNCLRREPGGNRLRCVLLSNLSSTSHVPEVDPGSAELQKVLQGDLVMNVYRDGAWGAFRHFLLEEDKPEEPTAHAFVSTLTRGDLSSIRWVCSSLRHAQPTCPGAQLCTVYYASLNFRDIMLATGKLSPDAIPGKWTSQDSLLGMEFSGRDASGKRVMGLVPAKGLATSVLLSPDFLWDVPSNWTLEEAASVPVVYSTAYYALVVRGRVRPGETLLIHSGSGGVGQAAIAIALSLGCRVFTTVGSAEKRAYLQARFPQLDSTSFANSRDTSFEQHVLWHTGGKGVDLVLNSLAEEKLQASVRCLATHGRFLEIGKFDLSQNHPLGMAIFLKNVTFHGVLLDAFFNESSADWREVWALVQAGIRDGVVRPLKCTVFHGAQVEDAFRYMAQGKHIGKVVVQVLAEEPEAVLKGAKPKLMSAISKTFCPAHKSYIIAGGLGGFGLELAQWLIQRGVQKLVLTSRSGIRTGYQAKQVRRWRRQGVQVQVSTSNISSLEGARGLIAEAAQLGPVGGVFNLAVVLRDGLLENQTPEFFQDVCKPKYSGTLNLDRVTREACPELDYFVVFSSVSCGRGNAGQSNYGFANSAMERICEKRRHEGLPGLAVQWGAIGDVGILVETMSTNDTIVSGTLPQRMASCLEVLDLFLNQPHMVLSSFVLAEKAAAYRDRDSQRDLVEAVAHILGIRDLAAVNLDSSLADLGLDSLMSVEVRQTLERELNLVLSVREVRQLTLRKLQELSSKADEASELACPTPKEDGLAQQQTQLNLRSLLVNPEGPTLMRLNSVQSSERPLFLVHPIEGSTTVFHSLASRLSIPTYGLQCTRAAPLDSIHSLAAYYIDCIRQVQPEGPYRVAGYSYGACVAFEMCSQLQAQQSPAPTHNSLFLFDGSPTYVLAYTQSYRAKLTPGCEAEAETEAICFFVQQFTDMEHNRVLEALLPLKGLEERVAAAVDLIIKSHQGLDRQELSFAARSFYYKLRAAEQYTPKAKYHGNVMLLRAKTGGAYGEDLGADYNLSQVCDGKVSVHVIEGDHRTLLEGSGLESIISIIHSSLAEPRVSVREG
- assay_info: FAS thioesterase domain inhibitors, dose response, biochemical, endpoint fluorescence intensity, uHTS hits (AID 624327);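 note: fluorescence from hydrolysis of an O-methyl fluorescein acyl ester substrate by the enzyme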
- Type: functional
Activity calls are given as the source filed them.
measurement_kind: IC50

Cc1cccc(NC(=O)c2[nH]cnc2C(=O)N[C@@H](CCCCNC(=O)OC(C)(C)C)C(=O)OC(C)(C)C)c1	1.12 µM (active)
CCn1c(C)c(C(C)=O)c(N2CCN(C(c3ccccc3)c3ccccc3)CC2)nc1=S	8.43 µM (active)
COc1cc(/C=N/NC(=O)C(Cc2c[nH]c3ccccc23)NC(=O)OCc2ccccc2)cc([N+](=O)[O-])c1O (stereo not given)	5.95 µM (active)

Find the measured IC50 of Cc1cccc(COCC(CC(C)C)N2CCN(C(=O)c3ccc(C(C)(C)C)cc3)CCC2=O)c1 (stereo not given) with Fatty acid synthase (Homo sapiens) as test system.
8.21 µM (active)

Find the measured IC50 of CC(C)c1ccc2c(c1)c(SC(C)(C)C)c(CC(C)(C)C(=O)O)n2Cc1ccc(Cl)cc1 with Fatty acid synthase (Homo sapiens) as test system.
10.1 µM (active)

---

- assay_info: Luminescence Cell-Based Dose Confirmation HTS to Identify Inhibitors of Platelet Dense Granule Release. [Related pubchem assays: 1663 (Primary HTS), 1678 (Summary of Project)]
- Format: functional
Activity calls are given as the source filed them.
Listed compounds paired with reported EC50

Example compounds with recorded EC50:
O=C(Nc1ccc([N+](=O)[O-])cc1)C(=O)Nc1cccc(C(=O)O)c1	2.09 µM (active)
CCCCC(=O)N(c1ccc(C(=O)O)cc1)c1nc(-c2ccc(Cl)cc2)c(CC)s1	> 112 µM (not active)
COC(=O)C1=C2SC(C)C(=O)N2C(N)=C(C#N)C1c1ccc(OC)c(OC)c1 (stereo not given)	> 112 µM (not active)
Cc1ccc(C)c(NC(=O)c2cc(S(=O)(=O)N3CCOCC3)cn2C)c1	> 112 µM (not active)

Field: next compound
Please report the measured EC50 for CSc1nc(/C=C2\C=Nc3ccccc32)c(O)n1C
0.812 µM (active)

---

- assay_info: cells
- Format: functional
Activity calls are given as the source filed them.
Listed compounds paired with reported IC50

Example compounds with recorded IC50:
CCN(CC)c1ccc2cc(C(=O)NCc3ccc(F)cc3)c(=N)oc2c1	2.12 µM (active)
Nc1nc2ccccc2n1CCOc1ccc(Br)cc1	31.8 µM (active)
Oc1cc(NCc2cccnc2)ccc1-c1nc2ccccc2o1	14.1 µM (active)
O=C(Nc1cccc(S(=O)(=O)N2CCCCC2)c1)c1ccc([N+](=O)[O-])o1	5.03 µM (active)

Please report the measured IC50 for CCc1cc2c(=O)n(C(C)C(=O)OC3CCCCC3)cnc2s1 (stereo not given)
17.9 µM (active)

---

- assay_target: CAAX prenyl protease 2 (Saccharomyces cerevisiae S288c)
- Sequence (Q03530 whole entry): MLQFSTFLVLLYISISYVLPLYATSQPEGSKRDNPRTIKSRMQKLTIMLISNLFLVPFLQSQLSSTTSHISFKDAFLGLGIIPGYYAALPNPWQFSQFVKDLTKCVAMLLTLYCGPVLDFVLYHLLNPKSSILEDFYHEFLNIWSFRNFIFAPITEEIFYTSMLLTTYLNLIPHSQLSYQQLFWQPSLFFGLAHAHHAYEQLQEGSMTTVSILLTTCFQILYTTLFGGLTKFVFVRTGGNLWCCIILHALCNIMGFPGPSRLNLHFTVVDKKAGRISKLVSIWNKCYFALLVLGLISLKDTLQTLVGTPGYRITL
- Type: biochemical
The source made the active and inactive calls.
Listed compounds paired with reported AC50

Example compounds with recorded AC50:
C[n+]1c2n(c3ccccc31)N=C(c1cc(C(C)(C)C)c(O)c(C(C)(C)C)c1)CS2	9.21 µM (active)
COc1ccccc1-c1coc2c(CN3CCOCC3)c(O)ccc2c1=O	52.5 µM (active)

Please report the measured AC50 for c1ccc(CCNc2ccnc3cc4ccccc4cc23)cc1
12.8 µM (active)

Please report the measured AC50 for CCOC(=O)c1nc2cc3n(c(C)c-2c1C)C(C)C(CC)=C3C (stereo not given)
8.32 µM (active)

Please report the measured AC50 for COc1ccc(-c2cc(C(=O)N3CCN(c4ccccc4)CC3)c3ccccc3n2)cc1
4.71 µM (active)

---

- assay_target: UniProtKB P11712
- Sequence (P11712 whole entry): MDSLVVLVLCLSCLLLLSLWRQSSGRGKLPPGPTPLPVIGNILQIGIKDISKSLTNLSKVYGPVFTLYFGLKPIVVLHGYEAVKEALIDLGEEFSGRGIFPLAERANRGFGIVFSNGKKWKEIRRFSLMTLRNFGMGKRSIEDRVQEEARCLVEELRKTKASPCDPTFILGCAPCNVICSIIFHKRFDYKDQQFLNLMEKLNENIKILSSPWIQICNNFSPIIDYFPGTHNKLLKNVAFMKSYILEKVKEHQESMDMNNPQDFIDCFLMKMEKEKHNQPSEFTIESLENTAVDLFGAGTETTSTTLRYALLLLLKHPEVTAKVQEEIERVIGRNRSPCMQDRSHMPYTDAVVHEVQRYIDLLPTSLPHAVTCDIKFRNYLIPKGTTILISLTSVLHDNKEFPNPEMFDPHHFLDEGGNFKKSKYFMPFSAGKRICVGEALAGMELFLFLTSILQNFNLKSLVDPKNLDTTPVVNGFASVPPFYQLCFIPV
Listed compounds paired with reported AC50

CC(C)C12CN3CC(C(C)C)(CN(C1)C3c1cccnc1)C2=O (stereo not given)	3.16 µM (inconclusive)
COCC1C2CC[C@H]3C(OCc4ccc(F)cc4C(F)(F)F)OC[C@]4(C)[C@H]3C2=C(CN4C(=O)OC(C)(C)C)[C@H](C)C1COC (stereo not given in full)	20 µM (inconclusive)

Please report the measured AC50 for Cn1c(C(=O)N2COCC2(C)C)cc2c(=O)n3ccccc3nc21
5.01 µM (inconclusive)

Please report the measured AC50 for Cc1cccc(C)c1NC(=O)C[S+]([O-])CC(=O)Nc1ccc(F)cc1F (stereo not given)
39.8 µM (inconclusive)

Please report the measured AC50 for O=C1Nc2cc(Cl)c(Cl)cc2N(O)N1c1ccc(Cl)c(Cl)c1
3.98 µM (inconclusive)

Please report the measured AC50 for CCC(=O)Nc1cccc(NC(=O)CSc2nnnn2Cc2ccccc2)c1
5.01 µM (inconclusive)

---

- assay_info: inhibitors of SNCA 5'UTR-driven reporter translation, confirmation, H4 neuroglioma cells, luminescence (AID 1988)
- Type: functional, cell-based
Calls of active or inactive are those of the source.
Listed compounds paired with reported EC50

Example compounds with recorded EC50:
CC(=O)c1cnc(SCC(=O)O)nc1C	> 120 µM (not active)
Cc1ccc(-c2ccnc3c(Cl)c(C)nn23)cc1	13.7 µM (active)
Cc1nn(-c2ccccc2Cl)c(Cl)c1/C=N/Nc1nc2ccccc2s1	< 0.1 µM (active)
CCCCSc1nc2c(c(=O)n1CC)SC(C)C2 (stereo not given)	> 120 µM (not active)

Field: next compound
Please report the measured EC50 for CCn1nc([N+](=O)[O-])c2c(-c3nc4ccccc4o3)c(N)n(CCCOC)c2c1=O
> 120 µM (not active)

---

- assay_target: Ubiquitin-conjugating enzyme E2 N (Homo sapiens);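 note: Dose-response confirmation in a TR-FRET assay detecting UBC13-driven polyubiquitin chain formation, inhibition measured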
- Sequence (P61088 whole entry): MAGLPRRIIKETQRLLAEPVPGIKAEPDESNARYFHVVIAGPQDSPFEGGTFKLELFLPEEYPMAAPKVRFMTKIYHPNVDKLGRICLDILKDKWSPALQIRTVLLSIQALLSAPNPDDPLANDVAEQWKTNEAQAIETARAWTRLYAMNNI
- Format: functional
Activity calls are given as the source filed them.
// classify into Yes = active, No = inactive

Reference set (2 entries):
COc1cc2c3nnc(-c4ccc(F)cc4)c-3cn(Cc3ccc(F)cc3)c2cc1OC	No
C#CCOCCOCCOCCNc1nc(N2CCN(C(=O)CCCCCCCCCCNC(=O)[C@H](CCCCN)n3cc(C[C@@H](C)CC)nn3)CC2)nc(N2CCN(C(=O)CCCCCCCCCCNC(=O)[C@H](CCCN=C(N)N)n3cc(C[C@@H](C)CC)nn3)CC2)n1	Yes

Could you now consider this next compound?
// return assay outcome for COc1cccc(NC(=O)CN(C)C(=O)c2cccnc2Nc2cccc(C(F)(F)F)c2)c1
No

---

- assay_target: Oxysterols receptor LXR-beta (Homo sapiens, UniProt P55055);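 note: HEK293 cells with Gal4-LXR fusion and GAL4-driven luciferase reporter; potency for activation of Gal4-LXR reporter so compounds are agonists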;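 note: agonist activity at LXR measured by a cell-based luminescence readout across a dose range, run as a counterscreen for daf-12 agonists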
- Sequence (P55055 whole entry, the tested form may be a part): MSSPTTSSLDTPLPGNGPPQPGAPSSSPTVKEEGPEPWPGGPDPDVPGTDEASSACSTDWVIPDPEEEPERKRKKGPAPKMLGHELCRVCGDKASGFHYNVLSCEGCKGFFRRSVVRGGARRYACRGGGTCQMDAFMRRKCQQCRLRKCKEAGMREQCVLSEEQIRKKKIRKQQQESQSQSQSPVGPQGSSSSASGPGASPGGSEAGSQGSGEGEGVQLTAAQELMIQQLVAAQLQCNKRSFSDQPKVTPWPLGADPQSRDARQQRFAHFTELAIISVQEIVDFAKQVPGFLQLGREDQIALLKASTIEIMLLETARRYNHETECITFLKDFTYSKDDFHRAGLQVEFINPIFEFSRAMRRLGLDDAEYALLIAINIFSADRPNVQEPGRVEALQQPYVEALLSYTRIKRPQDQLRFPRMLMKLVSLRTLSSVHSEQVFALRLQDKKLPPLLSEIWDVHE
- Format: functional, cell-based
Activity calls are given as the source filed them.
measurement_kind: EC50

Example compounds with recorded EC50:
Nc1c2c(nc3sc4c(c13)CCCC4)CCCCC2	> 67.6 µM (inactive)
CCN1C(=O)/C(=C/Nc2ccccc2)SC1=S	> 67.5 µM (inactive)
CCSCC(C)(C)n1[nH]c2ccccc2c1=O	> 67.6 µM (inactive)
Cc1cnc(NC(=O)COc2ccc3c(c2)CCC3)s1	> 67.6 µM (inactive)
CCc1ccc2oc(-c3cccc(N)c3)nc2c1	> 67.6 µM (inactive)

Please report the measured EC50 for C/C(=C\C(=O)c1sccc1Cl)N(C)C
> 67.6 µM (inactive)

---

- assay_target: Prothrombin (Homo sapiens, UniProt P00734)
- assay_info: Thrombin 1536 HTS Dose Response Confirmation. [Related pubchem assays: 1046 (Thrombin 1536 HTS; hits were confirmed in this assay)]
- Type: functional
The source made the active and inactive calls.
Listed molecules paired with reported IC50

Please report the measured IC50 for CC(C)C(=O)n1nc(-c2cccnc2)nc1NCc1cccs1
6 nM (active)

---

- assay_target: Sentrin-specific protease 1 (Homo sapiens, UniProt Q9P0U3)
- Sequence (Q9P0U3 whole entry): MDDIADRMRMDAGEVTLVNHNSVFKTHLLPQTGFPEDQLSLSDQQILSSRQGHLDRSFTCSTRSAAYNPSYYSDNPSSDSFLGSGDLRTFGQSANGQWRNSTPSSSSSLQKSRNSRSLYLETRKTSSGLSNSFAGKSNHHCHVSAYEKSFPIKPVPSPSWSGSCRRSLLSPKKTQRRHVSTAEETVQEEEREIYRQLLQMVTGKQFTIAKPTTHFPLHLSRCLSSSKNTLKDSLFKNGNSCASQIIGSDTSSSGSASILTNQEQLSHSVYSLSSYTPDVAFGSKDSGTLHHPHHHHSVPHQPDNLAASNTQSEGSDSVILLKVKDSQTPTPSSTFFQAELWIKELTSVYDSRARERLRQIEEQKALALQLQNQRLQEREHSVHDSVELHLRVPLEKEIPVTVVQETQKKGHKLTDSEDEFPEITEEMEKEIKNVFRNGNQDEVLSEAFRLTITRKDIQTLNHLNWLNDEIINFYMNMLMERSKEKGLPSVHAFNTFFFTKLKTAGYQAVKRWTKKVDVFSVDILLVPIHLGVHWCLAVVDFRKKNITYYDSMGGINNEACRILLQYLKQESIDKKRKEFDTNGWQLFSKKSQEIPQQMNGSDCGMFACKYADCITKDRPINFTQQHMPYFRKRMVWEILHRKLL
- assay_info: potency of human SENP1 inhibitors, dose response, biochemical, kinetic FRET (AID 651697)
- Type: functional
- condition_set: read-out: IC50_Mean
Where a name gives a salt, the structure may show the parent alone. The source made the active and inactive calls.
// classify into yes = active, no = inactive

Reference set (3 entries):
COc1cc(O)c(C=Nc2ccccc2NS(=O)(=O)c2ccc(C)cc2)c(OC)c1	yes
CN1Cc2c(N)cccc2C(c2ccccc2)C1 (stereo not given) [NOMIFENSINE MALEATE]	yes
CN(C)c1ccc(/C=N/NC(=O)/C(O)=C\C2=NC3(CCCC3)Cc3ccccc32)cc1	yes

// return assay outcome for Cn1c(=O)c2[nH]c(-c3ccccc3)c(O)c2n(C)c1=O
yes

// return assay outcome for COc1ccc(C2C(C(C)=O)=C(C)N=c3s/c(=C\c4ccco4)c(=O)n32)c(OC)c1 (stereo not given)
no
